Each entry below carries its recorded relative solubility at 100 uM.
- COND: 100.0 µM
Answer as a number with no unit attached.

Use these answered entries as a reference point.
N#Cc1cncc(NC(=O)Nc2cccnc2)c1
1
Cc1cccc(NC(=O)C(C#N)C(=O)CC(C)C)c1 (configuration not stated)
1
CS(=O)(=O)Nc1cccc(C(=O)Nc2cccc(N3CCCC3=O)c2)c1
0.99
Cc1ccncc1NC(=O)C(C)(C)c1cccc(Cl)c1
1
Cc1ccncc1NC(=O)[C@@]12COC[C@@H]1C2 (stereo in doubt)
1

Data request: Note down relative solubility at 100 uM recorded for CC1CC(C)CN(C(=O)c2ccccc2NC(=O)NCc2ccoc2)C1 (configuration not stated)
Data returned: 0.99

Data request: Note down relative solubility at 100 uM recorded for Cc1ccccc1C(C(=O)NCC(O)Cn1ccnn1)c1ccccc1 (configuration not stated)
Data returned: 1.01

Data request: Note down relative solubility at 100 uM recorded for Cc1csc(C(=O)N/N=C/c2cccnc2)c1N
Data returned: 0.93

Data request: Note down relative solubility at 100 uM recorded for CC1CN(Cc2cccc(Cl)c2)CCN1C(=O)CCl (configuration not stated)
Data returned: 0.99

Data request: Note down relative solubility at 100 uM recorded for O=C(NC1CCCCC1NC(=O)C1CCCCC1)c1ccncc1 (configuration not stated)
Data returned: 1

Data request: Note down relative solubility at 100 uM recorded for Cc1cccc(C2CN(C(=O)CCl)Cc3ccccc32)c1 (configuration not stated)
Data returned: 0.93

Data request: Note down relative solubility at 100 uM recorded for O=C(Nc1cccc(C(=O)N2CCSCC2)c1)C(F)Cl (configuration not stated)
Data returned: 1

###

- ASSAYED_TARGET: SARS-CoV-2 Main Protease (SARS-CoV-2) (UniProt P0DTD1)
- COND: 50.0 µM
Each entry below carries its recorded inhibition.

Data request: Under SARS-CoV-2 Main Protease (SARS-CoV-2) (UniProt P0DTD1): report inhibition of C=CC(=O)N(c1ccc(C(C)(C)C)cc1)C(C(=O)NCCOC)c1cccnc1 (stereo unspecified) .
Data returned: 52.7%

Data request: Under SARS-CoV-2 Main Protease (SARS-CoV-2) (UniProt P0DTD1): report inhibition of CC(C)(C)c1ccc(-c2nnc(Sc3cnc([N+](=O)[O-])s3)o2)cc1 .
Data returned: 69.9%

Data request: Under SARS-CoV-2 Main Protease (SARS-CoV-2) (UniProt P0DTD1): report inhibition of CNC(=O)OC1CCN(C(=O)c2ccccc2)CC1 .
Data returned: 19.2%

Data request: Under SARS-CoV-2 Main Protease (SARS-CoV-2) (UniProt P0DTD1): report inhibition of O=C(CCl)N1CCN(Cc2cccc3ccccc23)CC1 .
Data returned: 98.6%

Data request: Under SARS-CoV-2 Main Protease (SARS-CoV-2) (UniProt P0DTD1): report inhibition of O=C(Cc1ccc(Cl)s1)Nc1cccnc1 .
Data returned: 11.5%

Data request: Under SARS-CoV-2 Main Protease (SARS-CoV-2) (UniProt P0DTD1): report inhibition of O=S(=O)(Cc1ccccc1F)c1oc(-c2ccc(F)cc2)nc1S(=O)(=O)c1ccccc1 .
Data returned: 95.9%

###

- COND: 100.0 µM
MEASURE: relative solubility at 100 uM

C=CC(=O)N(c1ccc(C(C)C)nc1)C(C(=O)Nc1c(C)cccc1CC)c1cccnc1 (stereo unspecified)
0.95
Cc1ccncc1NC(=O)Cc1cccc(S(N)(=O)=O)c1
0.99
C=CC(=O)N(c1cc(C(C)(C)C)on1)C(C(=O)NCCc1cccc(F)c1)c1cncc(Cl)c1 (stereo unspecified)
0.56
C=CC(=O)N(c1cc(C(C)(C)C)on1)C(C(=O)NC(C)(C)C)c1cccnc1 (stereo unspecified)
0.91
O=C(CCl)N1CCC(C(=O)N2CCCCC2)CC1
1

Data request: Note down relative solubility at 100 uM recorded for CN(C(=O)C1CCOc2ccc(Cl)cc21)c1ccc(Cl)cn1 (stereo unspecified)
Data returned: 0.98

Data request: Note down relative solubility at 100 uM recorded for O=C(NCc1cncs1)Nc1cccc(N2CCOCC2)c1
Data returned: 1.01

Data request: Note down relative solubility at 100 uM recorded for O=C(CSC1=NCCS1)c1cc(Cl)ccc1Cl
Data returned: 0.64

Data request: Note down relative solubility at 100 uM recorded for Cn1cnnc1NC(=O)Cc1cccc(Cl)c1F
Data returned: 0.99

Data request: Note down relative solubility at 100 uM recorded for O=S(=O)(NCCc1ccccc1)c1ccoc1
Data returned: 1

Data request: Note down relative solubility at 100 uM recorded for C=CC(=O)Nc1cccc(OC2CC(=O)N2)c1 (stereo unspecified)
Data returned: 1

Data request: Note down relative solubility at 100 uM recorded for Cc1ccncc1NC(=O)c1cccc(NC(=O)Nc2cccnc2)c1
Data returned: 1

Data request: Note down relative solubility at 100 uM recorded for Cc1ccncc1N(C)C(=O)[C@@H]1C[C@H]1CF (stereo in doubt)
Data returned: 1.01

Data request: Note down relative solubility at 100 uM recorded for C=CC(=O)N(c1ccc(C(F)(F)F)cc1)C(C(=O)Nc1c(C)cccc1CC)c1cccnc1 (stereo unspecified)
Data returned: 0.79

Data request: Note down relative solubility at 100 uM recorded for C=CC(=O)N(c1ccc(C2CCOC2)cc1)C(C(=O)NC(C)(C)C)c1cccnc1 (stereo unspecified)
Data returned: 1.01

Data request: Note down relative solubility at 100 uM recorded for Cc1cccc(NC(=O)Cn2cncc2C)n1
Data returned: 1.01

Data request: Note down relative solubility at 100 uM recorded for C=CC(=O)N(c1ccc(C(C)(C)C)cc1)C(C(=O)Nc1ccc(F)cc1)c1cccnc1 (stereo unspecified)
Data returned: 0.86

###

- ASSAYED_TARGET: SARS-CoV-2 Main Protease (SARS-CoV-2) (UniProt P0DTD1)
- COND: 20.0 µM
MEASURE: inhibition (%)
// return numeric value only (unit: %, not printed)

Use these answered entries as a reference point.
O=C(CCl)N1CCN(S(=O)(=O)c2ccsc2)CC1
96.4
CS(=O)(=O)Nc1cccc(C(=O)Oc2cccc(N3CCCC3=O)c2)c1
0
CC(=O)Nc1cccc(N2CCCC2=O)c1
11.4
Cc1ccc(Oc2cccc(NC(=O)NCc3cnnn3C)c2)c(C)c1
0
COc1ccc2[nH]cc(CCNC(C)=O)c2c1
0
COc1cccc(NC(=O)Nc2cccc(C#N)c2)c1
0
Cc1ccncc1NC(=O)Cc1ccc(S(N)(=O)=O)cc1
6.42
NS(=O)(=O)c1ccc(N2CCSCC2)cc1
29.1
NS(=O)(=O)c1ccc(N2CCC(N3CCCCC3)CC2)cc1
0
O=C(CCl)N1CCN(S(=O)(=O)c2cccc(F)c2)CC1
96.6

Data request: Under SARS-CoV-2 Main Protease (SARS-CoV-2) (UniProt P0DTD1): report inhibition of O=C(Cc1c[nH]c2ncccc12)N1CCC(N2CCCS2(=O)=O)CC1 .
Data returned: 0

Data request: Under SARS-CoV-2 Main Protease (SARS-CoV-2) (UniProt P0DTD1): report inhibition of O=C(C(F)Cl)N1CCCC(c2nc3ccccc3s2)C1 (configuration not stated) .
Data returned: 0

###

- COND: 20.0 µM
Each entry below carries its recorded relative solubility at 20 uM.
Answer as a number with no unit attached.

Use these answered entries as a reference point.
Cc1ccncc1NC(=O)C12CCC(CO1)C2 (stereo unspecified)
1.01
C=CC(=O)N(C1COC2(CCC2)C1)C(C(=O)NC(C)(C)C)c1cccnc1 (stereo unspecified)
0.97
Cc1nc(CCn2c(C3CCC(=O)N3)nnc2N2CCOC(C)(C)C2)n[nH]1 (stereo unspecified)
1
N#Cc1ccc(NC(=O)Nc2cccnc2)cc1
1
O=C(/C=C/C=C/c1ccc2c(c1)OCO2)N1CCCCC1
1
Cc1cnn(C)c1NC(=O)Cc1cccc(Cl)c1
0.99
Cn1cnnc1CNC(=O)Nc1cc(C(F)(F)F)c[nH]c1=O
1
C=CC(=O)N(c1cc(C(C)(C)C)on1)C(C(=O)Nc1cccc(CC)c1)c1cccnc1 (stereo unspecified)
0.87
C=CC(=O)N(c1ccc(C(C)(C)C)cc1)C(C(=O)NC1CCOCC1)c1cccnc1 (stereo unspecified)
0.99
COc1ncccc1N(C)C(=O)C1CCOc2ccc(Cl)cc21 (stereo unspecified)
1

Note: attention shifts to another entry.
Data request: Note down relative solubility at 20 uM recorded for O=C(CCl)N1CCOc2cccc(-c3cccnc3)c21
Data returned: 1

###

Each entry below carries its recorded relative solubility at 20 uM.
- COND: 20.0 µM
Answer as a number with no unit attached.

Use these answered entries as a reference point.
CN(C)C/C=C/C(=O)NCc1c[nH]c2ccccc12
0.96
O=C(Cc1cccc(Cl)c1)Nc1cnccn1
1.01
O=C1C(=O)N(Cc2ccccc2)c2cc(Br)ccc21
0.99
Cc1ccncc1NC(=O)C(C)c1cccc(Cl)c1 (centres undefined)
1
O=C(O)[C@@H](Cc1nc(=O)cc[nH]1)NC[C@@H]1C[C@@H]2C=C[C@H]1C2 (stereo in doubt)
1

Data request: Note down relative solubility at 20 uM recorded for C=CC(=O)N(c1ccc(C(C)(C)C)cc1)C(C(=O)NC(C)(C)C)c1cncc2ccccc12 (centres undefined)
Data returned: 0.85

Data request: Note down relative solubility at 20 uM recorded for CNC(=O)OC1CCN(C(=O)c2ccncc2)CC1
Data returned: 1
